What follows is a record of MIC for Staphylococcus aureus A-5278.

Some solved entries appear below for comparison.
molecule	measurementKind	valueReported
CC[C@H]1OC(=O)[C@H](C)C(=O)[C@H](C)[C@@H](O[C@@H]2O[C@H](C)C[C@H](N(C)C)[C@H]2O)[C@](C)(OC/C=C/c2cncc(-n3ccnc3)c2)C[C@@H](C)C(=O)[C@H](C)[C@H]2NC(=O)O[C@@]21C [Example 37]	MIC	> 100 µg/mL
CC[C@H]1OC(=O)[C@H](C)C(=O)[C@H](C)[C@@H](O[C@@H]2O[C@H](C)C[C@H](N(C)C)[C@H]2O)[C@](C)(OC/C=C/c2cnc(-c3cccnc3)s2)C[C@@H](C)C(=O)[C@H](C)[C@H]2NC(=O)O[C@@]21C [Example 55]	MIC	> 100 µg/mL
CC[C@H]1OC(=O)[C@H](C)C(=O)[C@H](C)[C@@H](O[C@@H]2O[C@H](C)C[C@H](N(C)C)[C@H]2O)[C@](C)(OCC#Cc2ccc(-c3ccc(C=O)o3)cc2)C[C@@H](C)C(=O)[C@H](C)[C@H]2NC(=O)O[C@@]21C [Example 24]	MIC	> 100 µg/mL

Here are 6 molecules. What values of MIC were reported for them?
1. CC[C@H]1OC(=O)[C@H](C)C(=O)[C@H](C)[C@@H](O[C@@H]2O[C@H](C)C[C@H](N(C)C)[C@H]2O)[C@](C)(OCC#Cc2ccc(-c3cccc(Cl)c3)s2)C[C@@H](C)C(=O)[C@H](C)[C@H]2NC(=O)O[C@@]21C [Example 16]
2. CC[C@H]1OC(=O)[C@H](C)C(=O)[C@H](C)[C@@H](O[C@@H]2O[C@H](C)C[C@H](N(C)C)[C@H]2O)[C@](C)(OCC#Cc2ccc(-c3cccs3)s2)C[C@@H](C)C(=O)[C@H](C)[C@H]2NC(=O)O[C@@]21C [Example 25]
3. CC[C@H]1OC(=O)[C@H](C)C(=O)[C@H](C)[C@@H](O[C@@H]2O[C@H](C)C[C@H](N(C)C)[C@H]2O)[C@](C)(OCC#Cc2ccc(-c3ccco3)s2)C[C@@H](C)C(=O)[C@H](C)[C@H]2NC(=O)O[C@@]21C [Example 23]
4. CC[C@H]1OC(=O)[C@H](C)C(=O)[C@H](C)[C@@H](O[C@@H]2O[C@H](C)C[C@H](N(C)C)[C@H]2O)[C@](C)(OC/C=C/c2cncc(Br)c2)C[C@@H](C)C(=O)[C@H](C)[C@H]2NC(=O)O[C@@]21C [Example 40]
5. CC[C@H]1OC(=O)[C@H](C)[C@@H](O[C@H]2C[C@@](C)(OC)[C@@H](O)[C@H](C)O2)[C@H](C)[C@@H](O[C@@H]2O[C@H](C)C[C@H](N(C)C)[C@H]2O)[C@](C)(O)C[C@@H](C)C(=O)[C@H](C)[C@@H](O)[C@]1(C)O [Ery. A, Erythromycin A, reference compound]
6. CC[C@H]1OC(=O)[C@H](C)C(=O)[C@H](C)[C@@H](O[C@@H]2O[C@H](C)C[C@H](N(C)C)[C@H]2O)[C@](C)(OCC#Cc2ccc(-c3nccn3C)s2)C[C@@H](C)C(=O)[C@H](C)[C@H]2NC(=O)O[C@@]21C [Example 32]

Return:
25 µg/mL
25 µg/mL
> 100 µg/mL
> 100 µg/mL
> 100 µg/mL
> 100 µg/mL

Hey, quick one: what's MIC for each of these?
1. CC[C@H]1OC(=O)[C@H](C)C(=O)[C@H](C)[C@@H](O[C@@H]2O[C@H](C)C[C@H](N(C)C)[C@H]2O)[C@](C)(OC/C=C/c2ccc(-c3ncccn3)s2)C[C@@H](C)C(=O)[C@H](C)[C@H]2NC(=O)O[C@@]21C [Example 61]
2. CC[C@H]1OC(=O)[C@H](C)C(=O)[C@H](C)[C@@H](O[C@@H]2O[C@H](C)C[C@H](N(C)C)[C@H]2O)[C@](C)(OC/C=C/c2cncc(-c3ncccn3)c2)C[C@@H](C)C(=O)[C@H](C)[C@H]2NC(=O)O[C@@]21C [Example 46]
3. CC[C@H]1OC(=O)[C@H](C)C(=O)[C@H](C)[C@@H](O[C@@H]2O[C@H](C)C[C@H](N(C)C)[C@H]2O)[C@](C)(OCC#Cc2ccc(-c3cccc(F)c3)s2)C[C@@H](C)C(=O)[C@H](C)[C@H]2NC(=O)O[C@@]21C [Example 15]
4. CC[C@H]1OC(=O)[C@H](C)C(=O)[C@H](C)[C@@H](O[C@@H]2O[C@H](C)C[C@H](N(C)C)[C@H]2O)[C@](C)(OCC#Cc2ccc(-c3cncc(C(=O)N(C)C)c3)s2)C[C@@H](C)C(=O)[C@H](C)[C@H]2NC(=O)O[C@@]21C [Example 11]

Return:
["> 100 µg/mL", "> 100 µg/mL", "50 µg/mL", "> 100 µg/mL"]

Required: MIC, one value per molecule below.
1. CC[C@H]1OC(=O)[C@H](C)C(=O)[C@H](C)[C@@H](O[C@@H]2O[C@H](C)C[C@H](N(C)C)[C@H]2O)[C@](C)(OCC#Cc2ccc(-c3cc4ccccc4s3)s2)C[C@@H](C)C(=O)[C@H](C)[C@H]2NC(=O)O[C@@]21C [Example 34]
2. CC[C@H]1OC(=O)[C@H](C)C(=O)[C@H](C)[C@@H](O[C@@H]2O[C@H](C)C[C@H](N(C)C)[C@H]2O)[C@](C)(OCC#Cc2ccc(-c3cnc4ccccc4n3)s2)C[C@@H](C)C(=O)[C@H](C)[C@H]2NC(=O)O[C@@]21C [Example 33]
3. CC[C@H]1OC(=O)[C@H](C)C(=O)[C@H](C)[C@@H](O[C@@H]2O[C@H](C)C[C@H](N(C)C)[C@H]2O)[C@](C)(OCC#Cc2ccc(-c3cncnc3)s2)C[C@@H](C)C(=O)[C@H](C)[C@H]2NC(=O)O[C@@]21C [Example 4]

Return:
1: 50 µg/mL; 2: 25 µg/mL; 3: > 100 µg/mL

The measurements presented in this section are drawn from patent US6054435A.
